target: Substance-P receptor (Rattus norvegicus) (UniProt P14600); test: Antagonistic activity against Substance P(6-11) receptor in rat spinal cord at concentration of 25 uM.
Sequence (P14600 whole entry, looked up): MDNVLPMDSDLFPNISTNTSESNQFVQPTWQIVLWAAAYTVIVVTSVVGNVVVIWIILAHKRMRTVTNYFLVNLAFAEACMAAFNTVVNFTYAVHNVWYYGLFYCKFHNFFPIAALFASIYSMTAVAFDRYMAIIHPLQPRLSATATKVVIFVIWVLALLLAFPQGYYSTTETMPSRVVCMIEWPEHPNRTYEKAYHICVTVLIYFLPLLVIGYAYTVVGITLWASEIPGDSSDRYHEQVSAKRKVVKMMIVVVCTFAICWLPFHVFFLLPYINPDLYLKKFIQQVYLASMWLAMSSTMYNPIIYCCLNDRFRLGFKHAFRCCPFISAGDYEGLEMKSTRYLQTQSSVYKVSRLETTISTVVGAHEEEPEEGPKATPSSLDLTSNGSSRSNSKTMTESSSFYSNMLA
Where a SMILES comes first, the peptide text is derived from it. [ ]: non-standard residue; d: D form. The star is where a group is joined. Cbz = O=C(OCc1ccccc1)*
READOUT LABEL: Change in amplitude response (%)
Give just the numeric value; % need not be written.

Reference set (3 entries):
* CSCC[C@@H](NC(=O)[C@H](CC(C)C)NC(=O)[C@@H](Cc1c[nH]c2ccccc12)NC(=O)[C@H](Cc1c[nH]c2ccccc12)NC(=O)[C@@H](Cc1c[nH]c2ccccc12)NC(=O)[C@H](CCC(N)=O)NC(=O)[C@H](CCC(N)=O)NC(=O)[C@@H]1CCCN1C(=O)[C@H](CCCCN)NC(=O)[C@@H]1CCCN1C(=O)[C@@H](N)CCCN=C(N)N)C(=O)O | -55
* COC(=O)[C@@H](CCSC)NC(=O)[C@H](CC(C)C)NC(=O)[C@@H](Cc1c[nH]c2ccccc12)NC(=O)[C@H](Cc1c[nH]c2ccccc12)NC(=O)[C@@H](Cc1c[nH]c2ccccc12)NC(=O)[C@H](CCC(N)=O)NC(=O)[C@H](CCC(N)=O)NC(=O)[C@@H]1CCCN1C(=O)[C@H](CCCCN)NC(=O)[C@@H]1CCCN1C(=O)[C@@H](N)CCCN=C(N)N | -87
* COC(=O)[C@@H](CCSC)NC(=O)[C@H](CC(C)C)NC(=O)CNC(=O)[C@@H](Cc1c[nH]c2ccccc12)NC(=O)[C@@H](Cc1c[nH]c2ccccc12)NC(=O)[C@H](CCC(N)=O)NC(=O)[C@H](CCC(N)=O)NC(=O)[C@@H]1CCCN1C(=O)[C@H](CCCCNC(=O)OCc1ccccc1)NC(=O)[C@@H]1CCCN1C(=O)[C@H](CCCN=C(N)N)NC(=O)OCc1ccccc1 (Cbz-RPK(Cbz)PQQ[dW][dW]GL[dM]-OMe) | -77

Next, consider the following compound.
Problem: Tell us which Change in amplitude response value is on record for "CSCC[C@@H](NC(=O)[C@H](CC(C)C)NC(=O)[C@@H](Cc1c[nH]c2ccccc12)NC(=O)[C@H](Cc1c[nH]c2ccccc12)NC(=O)[C@@H](Cc1c[nH]c2ccccc12)NC(=O)[C@H](CCC(N)=O)NC(=O)[C@H](CCC(N)=O)NC(=O)[C@@H]1CCCN1C(=O)[C@H](CCCCNC(=O)OCc1ccccc1)NC(=O)[C@@H]1CCCN1C(=O)[C@H](CCCN=C(N)N)NC(=O)OCc1ccccc1)C(=O)O"
Result: -49

Entry source: ChEMBL document CHEMBL1123529
